These entries and their values trace back to ChEMBL document CHEMBL1201862.

# Target entity: Paired box protein Pax-8 (Homo sapiens)
# Sequence (Q06710 whole entry): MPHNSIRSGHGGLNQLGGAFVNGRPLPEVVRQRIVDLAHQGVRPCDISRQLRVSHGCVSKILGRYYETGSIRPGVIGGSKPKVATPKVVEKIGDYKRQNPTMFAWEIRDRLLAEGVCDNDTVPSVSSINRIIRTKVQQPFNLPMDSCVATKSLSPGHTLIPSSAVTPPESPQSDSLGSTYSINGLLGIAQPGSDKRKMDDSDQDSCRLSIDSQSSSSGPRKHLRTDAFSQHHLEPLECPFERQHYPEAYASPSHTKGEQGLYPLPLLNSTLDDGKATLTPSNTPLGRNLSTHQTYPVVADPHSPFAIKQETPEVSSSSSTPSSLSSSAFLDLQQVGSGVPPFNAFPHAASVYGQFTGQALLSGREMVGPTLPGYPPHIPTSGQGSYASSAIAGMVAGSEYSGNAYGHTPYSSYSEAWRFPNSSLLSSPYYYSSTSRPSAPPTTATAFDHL
# Measurement protocol: inhibitors of PAX8-driven TPO luciferase reporter, dose response, RMG-I cells, cherry-pick (AID 687027);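 note: luciferase reporter driven by Pax8 target thyroperoxidase promoter measured by SteadyGlo luminescence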
# Type: functional, cell-based
Active and inactive are the calls of the source.
Endpoint name: AC50

Worked examples follow.
# Compound, Observed
rows = [
    ("O=C(Nc1ccc(C(F)(F)F)cc1)Nc1ccc2c(c1)[C@H]1C[C@@H](CC(=O)N3CCc4ccccc4C3)O[C@H](CO)[C@H]1O2", "4.1 µM (active)"),
    ("CCC(OC(=O)c1ccc(S(C)(=O)=O)c([N+](=O)[O-])c1)C(=O)NC1C2CC3CC(C2)CC1C3 (stereo not drawn)", "8.07 µM (active)"),
]

# input So what's the measured AC50 for this one? C[C@@H]1CCCCO[C@H](CN(C)C(=O)Nc2ccc(C(F)(F)F)cc2)[C@@H](C)CN([C@@H](C)CO)C(=O)c2cc(NS(=O)(=O)c3ccc(Cl)cc3)ccc2O1
# output 3.44 µM (active)

====

# Target entity: Major prion protein (Homo sapiens, UniProt P04156)
# Format: functional, cell-based
Calls of active or inactive are those of the source.
Endpoint name: IC50

# Compound, Target entity, IC50
records = [
    ("CCCOc1ccc(C(=O)C2=C(O)C(=O)N(c3ccccn3)C2c2ccccc2F)cc1C (centres undefined)", "Major prion protein (Homo sapiens, UniProt P04156)", "2.96 µM (active)"),
    ("Cn1c(=S)sc2ccc3ccccc3c21", "Major prion protein (Homo sapiens, UniProt P04156)", "6.25 µM (active)"),
    ("O=C(COC(=O)CSc1ccc2ccccc2c1Br)NC1CC1", "Major prion protein (Homo sapiens, UniProt P04156)", "4.72 µM (active)"),
]

# ---- query compound ----
# input So what's the measured IC50 for this one? Cc1cc2cccc(C)c2nc1SCC(=O)NNC(=O)c1ccco1
# output 7.04 µM (active)

====

# Target entity: Histone-lysine N-methyltransferase NSD2 (Homo sapiens, UniProt O96028)
# Sequence (O96028 whole entry): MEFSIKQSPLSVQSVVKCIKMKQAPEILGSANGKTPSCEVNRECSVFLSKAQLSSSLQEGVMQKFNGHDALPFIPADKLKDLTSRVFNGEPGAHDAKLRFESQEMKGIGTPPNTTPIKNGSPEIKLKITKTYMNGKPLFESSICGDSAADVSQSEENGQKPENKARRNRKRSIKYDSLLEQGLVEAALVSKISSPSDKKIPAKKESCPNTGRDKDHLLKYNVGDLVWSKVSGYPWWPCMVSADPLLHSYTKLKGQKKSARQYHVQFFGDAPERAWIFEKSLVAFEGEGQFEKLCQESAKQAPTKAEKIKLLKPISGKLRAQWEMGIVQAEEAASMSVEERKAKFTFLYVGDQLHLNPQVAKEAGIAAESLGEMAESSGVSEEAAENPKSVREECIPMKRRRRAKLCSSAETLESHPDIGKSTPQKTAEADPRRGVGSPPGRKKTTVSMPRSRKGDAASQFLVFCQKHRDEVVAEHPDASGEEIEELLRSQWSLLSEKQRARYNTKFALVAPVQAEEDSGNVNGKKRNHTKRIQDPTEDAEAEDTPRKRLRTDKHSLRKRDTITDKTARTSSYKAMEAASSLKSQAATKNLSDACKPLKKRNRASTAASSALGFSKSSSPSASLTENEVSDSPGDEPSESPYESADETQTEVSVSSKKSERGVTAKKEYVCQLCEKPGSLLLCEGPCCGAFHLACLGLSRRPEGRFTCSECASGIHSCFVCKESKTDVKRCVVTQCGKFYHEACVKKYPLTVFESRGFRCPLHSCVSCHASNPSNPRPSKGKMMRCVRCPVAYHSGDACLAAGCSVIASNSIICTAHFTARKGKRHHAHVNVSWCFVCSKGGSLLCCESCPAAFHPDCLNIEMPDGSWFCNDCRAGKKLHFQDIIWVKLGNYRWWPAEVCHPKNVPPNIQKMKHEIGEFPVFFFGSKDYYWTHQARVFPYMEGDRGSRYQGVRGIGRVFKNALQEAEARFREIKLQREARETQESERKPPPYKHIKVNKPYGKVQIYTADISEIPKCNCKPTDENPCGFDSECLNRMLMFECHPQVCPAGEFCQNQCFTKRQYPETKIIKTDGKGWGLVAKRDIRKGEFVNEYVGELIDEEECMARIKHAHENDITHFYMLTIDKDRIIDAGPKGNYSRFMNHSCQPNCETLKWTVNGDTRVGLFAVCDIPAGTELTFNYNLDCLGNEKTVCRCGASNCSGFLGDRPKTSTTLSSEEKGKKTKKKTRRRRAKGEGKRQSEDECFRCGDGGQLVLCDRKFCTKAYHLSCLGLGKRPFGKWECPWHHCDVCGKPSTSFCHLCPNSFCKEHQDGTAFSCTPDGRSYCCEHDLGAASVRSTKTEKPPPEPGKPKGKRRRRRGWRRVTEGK
# Type: biochemical
Active and inactive are the calls of the source.
Reply using exactly one outcome from YES (active), NO (inactive)

These solved cases illustrate the format of a correct answer.
# Record smiles, Label class
rows = [
    ("CCc1ccc(S(=O)(=O)/N=C2\\C=C(NS(=O)(=O)c3ccccc3)C(=O)c3ccccc32)cc1", "YES"),
    ("CC1=C/C(=C(\\c2cc(C)c(O)c(Br)c2)c2ccccc2S(=O)(=O)O)C=C(Br)C1=O", "YES"),
    ("CCN(CC)CC(C)(C)C(=O)/C=C/c1ccc(/C=C/C(=O)C(C)(C)CN(CC)CC)cc1", "NO"),
]

# input Can you look up the reported call for N#Cc1cc2ccc(N3CCOCC3)cc2cc1C#N for me?
# output YES

====

Listed below: EC50 values for each entry.
# Target entity: Zinc finger protein mex-5 (Caenorhabditis elegans)
# Sequence (Q9XUB2 whole entry): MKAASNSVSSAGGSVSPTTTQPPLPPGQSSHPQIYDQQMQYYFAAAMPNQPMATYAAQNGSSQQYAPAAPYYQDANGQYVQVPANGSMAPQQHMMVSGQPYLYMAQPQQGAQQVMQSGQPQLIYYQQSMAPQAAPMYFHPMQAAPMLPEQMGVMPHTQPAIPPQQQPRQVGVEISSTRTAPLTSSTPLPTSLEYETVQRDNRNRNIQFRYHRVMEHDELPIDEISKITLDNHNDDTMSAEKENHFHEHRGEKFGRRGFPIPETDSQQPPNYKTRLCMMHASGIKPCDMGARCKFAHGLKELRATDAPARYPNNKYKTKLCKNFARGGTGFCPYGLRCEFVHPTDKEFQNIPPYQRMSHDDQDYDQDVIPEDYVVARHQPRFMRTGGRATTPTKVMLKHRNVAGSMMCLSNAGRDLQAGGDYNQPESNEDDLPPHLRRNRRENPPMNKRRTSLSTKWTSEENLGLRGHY
# Measurement protocol: MEX-5/TCR-2 RNA interaction inhibitors, dose response, biochemical, C. elegans, fluorescence polarization (AID 1960)
The source made the active and inactive calls.

# Compound, Endpoint name, Observed
measured = [
    ("Cc1c(NC(=O)c2coc(=O)c(Br)c2)c(=O)n(-c2ccccc2)n1C", "EC50", "16.8 µM (active)"),
    ("CCCCC1=CC2=CC(=O)C(C)(OC(=O)CCc3ccccc3)C(=O)C2=CO1 (stereo not given)", "EC50", "> 150 µM (not active)"),
    ("O=C(O)C(=O)/C(=C\\c1cccc2ccccc12)c1ccc2ccccc2n1", "EC50", "34.2 µM (active)"),
    ("CC(C)/C=C1\\CC/C(=C\\c2ccc(N(C)C)cc2)C1=O", "EC50", "> 300 µM (inconclusive)"),
    ("Cn1c(N=Nc2ccc(N3CCOCC3)cc2)[n+](C)c2ccccc21", "EC50", "219 µM (active)"),
]

# input Hello, I am looking for reported EC50 with Zinc finger protein mex-5 (Caenorhabditis elegans) for CN1C(=O)/C(=C\c2ccc(N3CCCCC3)o2)C(=O)NC1=S . Could you help?
# output > 300 µM (not active)

# input Hello, I am looking for reported EC50 with Zinc finger protein mex-5 (Caenorhabditis elegans) for Cc1cc(/C=C2\C(=O)NC(=O)N(Cc3ccco3)C2=O)c(C)n1-c1ccc(C(=O)O)cc1 . Could you help?
# output > 300 µM (inconclusive)

# input Hello, I am looking for reported EC50 with Zinc finger protein mex-5 (Caenorhabditis elegans) for N#CC(C#N)=Cc1ccc(-c2ccccc2)o1 . Could you help?
# output 22.5 µM (inconclusive)
